System: MCF7
Assay: cells
Settings: Homo sapiens
pEC50: −log10 of the molar value.
Would you mind telling me the reported pEC50 of each entry?

Would you mind telling me what pEC50 value was observed for Cc1ccc(N2CCc3cc(O)ccc3C2(C)c2ccc(OCCN3CCCC3)cc2)cc1 (centres undefined) ? > 10.00

Would you mind telling me what pEC50 value was observed for CC1(c2ccc(OCCN3CCCC3)cc2)c2ccc(O)cc2CCN1c1cccc(O)c1 (centres undefined) ? > 9.30

Would you mind telling me what pEC50 value was observed for Oc1ccc2c(c1)CCN(c1ccccc1)C2c1ccc(OCCN2CCCC2)cc1 (centres undefined) ? > 10.00

Would you mind telling me what pEC50 value was observed for Oc1ccc2c(c1)CCN(c1ccccc1)C2c1ccc(F)cc1 (centres undefined) ? 9.00

Would you mind telling me what pEC50 value was observed for Cl.O=C(c1ccc(OCCN2CCCCC2)cc1)c1c(-c2ccc(O)cc2)sc2cc(O)ccc12 [RALOXIFENE HYDROCHLORIDE] ? 10.70

Would you mind telling me what pEC50 value was observed for CC1(c2ccc(OCCN3CCCCC3)cc2)c2ccc(O)cc2CCN1c1ccccc1 (centres undefined) ? > 10.00

Would you mind telling me what pEC50 value was observed for CN(C)c1cccc(N2CCc3cc(O)ccc3C2(C)c2ccc(OCCN3CCCC3)cc2)c1 (centres undefined) ? > 9.30

Would you mind telling me what pEC50 value was observed for Cc1ccc(N2CCc3cc(O)ccc3C2(C)c2ccc(OCCN3CCCCC3)cc2)cc1 (centres undefined) ? > 10.00

Would you mind telling me what pEC50 value was observed for CC(C)c1ccc(N2CCc3cc(O)ccc3C2(C)c2ccc(OCCN3CCCC3)cc2)cc1 (centres undefined) ? > 10.00

Would you mind telling me what pEC50 value was observed for CC1(c2ccc(OCCN3CCCCCC3)cc2)c2ccc(O)cc2CCN1c1ccccc1 (centres undefined) ? > 10.00

Would you mind telling me what pEC50 value was observed for CC1(c2ccc(OCCN3CCCC3)cc2)c2ccc(O)cc2CCN1c1ccc(F)cc1 (centres undefined) ? > 10.00

Would you mind telling me what pEC50 value was observed for CC1(c2ccc(OCCN3CCCC3)cc2)c2ccc(O)cc2CCN1c1cccc(Cl)c1 (centres undefined) ? > 10.00

Would you mind telling me what pEC50 value was observed for CC(C)c1ccc(N2CCc3cc(O)ccc3C2(C)c2ccc(OCCN3CCCCC3)cc2)cc1 (centres undefined) ? > 10.00

Would you mind telling me what pEC50 value was observed for CC1(c2ccc(OCCN3CCCCC3)cc2)c2ccc(O)cc2CCN1c1ccc(Cl)cc1 (centres undefined) ? > 10.00
